observation type: H2 permeability (Barrer)
Give the value in Barrer but do not write Barrer after it.

Query string: What value of measured H2 permeability is listed for *Oc1ccc(Oc2cccc(*)c2C#N)c(-c2cccc(C(F)(F)F)c2)c1 (repeat unit) ?
Result string: 9.3

Query string: Returns the measured H2 permeability for the input molecule. Input: *c1ccc(Cc2ccc(-n3c(=O)c4cc5c(=O)n(*)c(=O)c5cc4c3=O)cc2)cc1 (repeat unit)
Result string: 6.61

Query string: Give the measured H2 permeability of *Oc1ccc(-c2ccc(C3CCC(Oc4ccc(C5(c6ccc(*)cc6)c6ccccc6-c6ccccc65)cc4)C(C(F)(F)F)C3)s2)cc1C(F)(F)F (repeat unit) .
Result string: 55

Query string: # get_value(readout='H2 permeability', item= *Oc1ccc(C(C)(C)c2ccc(C(C)(C)c3ccc(Oc4ccc(S(=O)(=O)c5ccc(*)cc5)cc4)cc3)cc2)cc1 (repeat unit) )
Result string: 36

* * *

observation type: log10(H2 permeability) (log10 of the value in Barrer)
Field: value | Transform: log10 | Quantity: H2 permeability | Unit: Barrer

Query string: Which log10(H2 permeability) value is on record for *c1ccc(Oc2ccc(N3C(=O)c4ccc(Oc5ccc6c(c5)C(=O)N(*)C6=O)cc4C3=O)cc2)cc1 (repeat unit) ?
Result string: 0.68

Query string: Could you tell me which log10(H2 permeability) is on file for *c1c(C)cc(C)c(N2C(=O)c3ccc(Oc4ccc(Oc5ccc6c(c5)C(=O)N(*)C6=O)cc4)cc3C2=O)c1C (repeat unit) ?
Result string: 1.60

Query string: Sample *C(C)=C(*)[Si](C)(C)C (repeat unit) — what was its log10(H2 permeability)?
Result string: 4.19

Query string: Which log10(H2 permeability) reading was recorded for the molecule *c1ccc2c(c1)C(=O)n1c-2nc2ccc(Oc3ccc4c(c3)nc3n4C(=O)c4ccc(*)cc4-3)cc21 (repeat unit) ?
Result string: 0.82

Query string: If you can, please state the reported log10(H2 permeability) value of *Cc1ccc(C*)cc1 (repeat unit) .
Result string: 0.51

Query string: Which log10(H2 permeability) value is on record for *Oc1ccc(C2(c3ccc(OC(=O)c4cc(C(*)=O)cc(C(C)(C)C)c4)cc3)OC(=O)c3ccccc32)cc1 (repeat unit) ?
Result string: 1.62

Query string: What does the record list as log10(H2 permeability) for *OC(=O)Oc1ccc(C2(c3ccc(*)cc3)CC3CCC2C3)cc1 (repeat unit) ?
Result string: 1.34

Query string: Record request: log10(H2 permeability) value, item *OC(=O)Oc1ccc(C(=C(Cl)Cl)c2ccc(*)cc2)cc1 (repeat unit)
Result string: 1.05

Query string: Entry under review: *c1cccc(Oc2cccc(-n3c(=O)c4cc5c(=O)n(*)c(=O)c5cc4c3=O)c2)c1 (repeat unit) . Reported log10(H2 permeability)?
Result string: 0.56

Query string: State the recorded log10(H2 permeability) for this entry: *Oc1c(Br)cc(C2(c3cc(Br)c(OC(=O)c4cccc(C(*)=O)c4)c(Br)c3)OC(=O)c3ccccc32)cc1Br (repeat unit)
Result string: 1.43

Query string: Item *C(=C(*)c1ccc(-c2ccccc2)cc1)c1ccccc1 (repeat unit) has what recorded log10(H2 permeability)?
Result string: 2.64

Query string: GET /values?readout=log10(H2 permeability)&item= *Oc1c(Br)cc(C2(c3cc(Br)c(OC(=O)c4cc(C(*)=O)cc(C(C)(C)C)c4)c(Br)c3)OC(=O)c3ccccc32)cc1Br (repeat unit)
Result string: 1.83

Query string: Consider the molecule *C(=C(*)c1ccc2c(c1)Cc1ccccc1-2)c1ccccc1 (repeat unit) and give its measured log10(H2 permeability).
Result string: 3.56

Query string: Consider the molecule *c1ccc2c(-c3c(O)ccc4cc(N5C(=O)c6ccc(C(=O)c7ccc8c(c7)C(=O)N(*)C8=O)cc6C5=O)ccc34)c(O)ccc2c1 (repeat unit) and give its measured log10(H2 permeability).
Result string: 0.66

Query string: Would you mind telling me what log10(H2 permeability) value was observed for *O[Si](*)(C)C (repeat unit) ?
Result string: 2.95

Query string: Any idea what its log10(H2 permeability) is? The molecule is *Oc1c(Br)cc(C(c2cc(Br)c(OC(=O)c3cccc(C(*)=O)c3)c(Br)c2)(C(F)(F)F)C(F)(F)F)cc1Br (repeat unit)
Result string: 1.81
